- Tested on: CD2F1 mice, L1210 leukemia ip, survival T/C
- assay_comment: NCI In Vivo Anticancer Drug Screen. Data for tumor model L1210 Leukemia (intraperitoneal) in CD2F1 (CDF1) mice
- condition_parameters: endpoint: mean survival time; dose: 400.0 mg/kg/injection; schedule: Q01DX009 (ip); vehicle: saline with Tween-80; higher = longer survival
- Protocol: The antitumor activity of compounds was measured in mice bearing transplantable tumors. Survival or tumor size were measured and the results are expressed as the measurement made in the treated group (T) divided by the measurement made in the vehicle treated control group (C). The tumor model used in this assay is L1210 Leukemia (intraperitoneal) in CD2F1 (CDF1) mice
Inconclusive results and toxic doses are left out.
reported_endpoint: T/C

Here are 3 compounds together with their reported answers.
>>> endpoint_result("O=C(O)C(Br)C(Br)c1ccccc1 (centres undefined)")
"93 % of control"
>>> endpoint_result("O=C(Nc1ccccc1)c1ccccc1C1(O)c2ccccc2-c2ccccc21")
"91 % of control"
>>> endpoint_result("COc1ccc(C(C)C(OC(=O)c2ccc([N+](=O)[O-])cc2)c2ccccc2)cc1 (centres undefined)")
"103 % of control"

Moving on to the next compound.
Give the observed T/C of `CCn1c(N)c(N)c(=O)[nH]c1=S` for CD2F1 mice, L1210 leukemia ip, survival T/C.
88 % of control

---

- System: CD2F1 mice, L1210 leukemia ip, survival T/C
- assay_comment: NCI In Vivo Anticancer Drug Screen. Data for tumor model L1210 Leukemia (intraperitoneal) in CD2F1 (CDF1) mice
- condition_parameters: endpoint: mean survival time; dose: 150.0 mg/kg/injection; schedule: Q01DX001 (ip); vehicle: saline; higher = longer survival
Inconclusive results and toxic doses are left out.
reported_endpoint: T/C

Here are 5 compounds together with their reported answers.
>>> endpoint_result("CC(N)c1ccccc1 (stereo unspecified)")
"100 % of control"
>>> endpoint_result("NC1CC(CO)C(O)C1O (stereo unspecified)")
"103 % of control"
>>> endpoint_result("O=S1(=O)CCCCC1")
"96 % of control"
>>> endpoint_result("c1ccc(CN2CCc3cc4c(cc3C2)OCO4)cc1")
"90 % of control"
>>> endpoint_result("CCCCCC/C(C)=C(/C#N)C(=O)OC")
"97 % of control"

Moving on to the next compound.
Read off the recorded T/C for FC1(F)C2Cc3ccccc3C2C1(Cl)Cl (stereo unspecified)
101 % of control

---

- System: CD2F1 mice, L1210 leukemia ip, survival T/C
- assay_comment: NCI In Vivo Anticancer Drug Screen. Data for tumor model L1210 Leukemia (intraperitoneal) in CD2F1 (CDF1) mice
- condition_parameters: endpoint: mean survival time; dose: 400.0 mg/kg/injection; schedule: Q01DX009 (ip); vehicle: other; higher = longer survival
Toxic doses and inconclusive results are not listed.
Here, each record is paired with measured T/C data.

Here are 2 molecules together with their reported answers.
>>> endpoint_result("NC(=O)CC(N)C(=O)O (stereo not drawn)")
"104 % of control"
>>> endpoint_result("O=C(CC(O)(C(F)(F)F)C(F)(F)F)c1ccc(F)cc1")
"98 % of control"

Read off the recorded T/C for CCOC(=O)c1c[nH]c2oc(/C=N/N3CC(CN4CCOCC4)OC3=O)cc2c1=O (stereo not drawn)
96 % of control

---

- Tested on: CD2F1 mice, L1210 leukemia ip, survival T/C
- assay_comment: NCI In Vivo Anticancer Drug Screen. Data for tumor model L1210 Leukemia (intraperitoneal) in CD2F1 (CDF1) mice
- condition_parameters: endpoint: mean survival time; dose: 100.0 mg/kg/injection; schedule: Q01DX009 (ip); vehicle: saline with Tween-80; higher = longer survival
Toxic doses and inconclusive results are not listed.
Here, each record is paired with measured T/C data.

>>> endpoint_result("CCCCCCCCCCCCCCCc1cc(=O)n(-c2ccc(C(=O)OCC)cc2)n1C")
"92 % of control"
>>> endpoint_result("COc1ccc(CCNC(=O)CCN2C(=O)CCC2=O)cc1OC")
"98 % of control"

Read off the recorded T/C for `Cc1[nH]c(=S)[nH]c(=O)c1CCO`
101 % of control

Read off the recorded T/C for `CCCCCCCCC[n+]1ccc(C(N)=O)cc1`
95 % of control

Read off the recorded T/C for CC1(c2ccccc2)C(C#N)C(=O)NC(=O)C1C#N (stereo not given)
94 % of control

Read off the recorded T/C for CCC(C)C(CO)c1ccccc1 (stereo not given)
88 % of control

Read off the recorded T/C for C=CCC(Cc1ccccc1)C1=NC(C)(C)CC(C)O1 (stereo not given)
97 % of control

Read off the recorded T/C for `Cc1cccc(C)c1NC(=O)c1ccccc1C(=O)O`
92 % of control

Read off the recorded T/C for `CCCCCCCCCCCCNC1=CC(=O)c2nccnc2C1=O`
95 % of control

Read off the recorded T/C for `COc1ccc(OCCOC(=O)Nc2c(Cl)cccc2Cl)cc1`
94 % of control

Read off the recorded T/C for `CNC(=O)Nc1ccc(S(N)(=O)=O)cc1`
97 % of control

Read off the recorded T/C for CC(OC(=O)c1ccccc1)c1ccccc1 (stereo not given)
95 % of control

Read off the recorded T/C for COS(=O)C(c1ccccc1)C(c1ccccc1)C(O)c1ccccc1 (stereo not given)
90 % of control

Read off the recorded T/C for CCOC(=O)NC12c3ccccc3C(c3ccccc31)C(C(=O)O)C2C(=O)O (stereo not given)
90 % of control

Read off the recorded T/C for `Cc1ccc(S(=O)(=O)Nc2ccccc2-c2nc3ccc(C)cc3c(=O)o2)cc1`
100 % of control

---

- Tested on: CD2F1 mice, L1210 leukemia ip, survival T/C
- assay_comment: NCI In Vivo Anticancer Drug Screen. Data for tumor model L1210 Leukemia (intraperitoneal) in CD2F1 (CDF1) mice
- condition_parameters: endpoint: mean survival time; dose: 400.0 mg/kg/injection; schedule: Q04DX002 (ip); vehicle: saline with Tween-80; higher = longer survival
Inconclusive results and toxic doses are left out.
reported_endpoint: T/C

Here are 4 compounds together with their reported answers.
>>> endpoint_result("CC1C=CC(C)S1 (stereo not given)")
"112 % of control"
>>> endpoint_result("COC(=O)c1ccccc1I")
"107 % of control"
>>> endpoint_result("Cc1cccc(NC(=O)COc2cc(Cl)c(Cl)cc2Cl)c1")
"94 % of control"
>>> endpoint_result("CCCCCCCC/C=C/CCCCCCCC1=NCCN1CCO")
"100 % of control"

Moving on to the next compound.
Read off the recorded T/C for CC(=O)OC1(c2ccccc2)OC(=O)c2ccccc21 (stereo not given)
108 % of control

---

- Tested on: CD2F1 mice, L1210 leukemia ip, survival T/C
- assay_comment: NCI In Vivo Anticancer Drug Screen. Data for tumor model L1210 Leukemia (intraperitoneal) in CD2F1 (CDF1) mice
- condition_parameters: endpoint: mean survival time; dose: 100.0 mg/kg/injection; schedule: Q01DX001 (ip); vehicle: saline; higher = longer survival
Inconclusive results and toxic doses are left out.
reported_endpoint: T/C

>>> endpoint_result("CC(=O)NC(C)NC(C)=O")
"103 % of control"
>>> endpoint_result("CC(=O)OC12C=C(C)C(C3C(=O)OC(=O)C31)C(C)(C)C2 (stereo not drawn)")
"103 % of control"
>>> endpoint_result("C/C(=N\\O)c1ccc2ccc3ccccc3c2c1")
"100 % of control"

Read off the recorded T/C for COC1OC(CO)C(NC(N)=O)C1O (stereo not drawn)
101 % of control

Read off the recorded T/C for CC(C)(C)CC1(C)NC(=O)NC1=O (stereo not drawn)
100 % of control

Read off the recorded T/C for COc1ccc(OCC(O)CO)cc1 (stereo not drawn)
102 % of control

Read off the recorded T/C for O=c1[nH]cnc2c1ncn2C1OCC(O)C(O)C1O (stereo not drawn)
102 % of control

Read off the recorded T/C for COC1OCC(C(C)=O)C(O)C1O (stereo not drawn)
101 % of control

---

- Test system: CD2F1 mice, L1210 leukemia ip, survival T/C
- assay_comment: NCI In Vivo Anticancer Drug Screen. Data for tumor model L1210 Leukemia (intraperitoneal) in CD2F1 (CDF1) mice
- condition_parameters: endpoint: mean survival time; dose: 200.0 mg/kg/injection; schedule: Q04DX003 (ip); vehicle: saline with Tween-80; higher = longer survival
Inconclusive results and toxic doses are left out.
Here, each record is paired with measured T/C data.

>>> endpoint_result("N#CC1C(=N)Cc2ccccc2-c2ccccc21 (stereo not drawn)")
"101 % of control"
>>> endpoint_result("COc1cccc(N2C(=O)CSC2=S)c1")
"96 % of control"
>>> endpoint_result("COC(=O)c1ccc(O)c([N+](=O)[O-])c1")
"93 % of control"
>>> endpoint_result("Cc1ccc(S(=O)(=O)OCCCCCCCCCCOS(=O)(=O)c2ccc(C)cc2)cc1")
"97 % of control"
>>> endpoint_result("CCOC(=O)CN(C=O)C(C)c1ccccc1 (stereo not drawn)")
"93 % of control"

Read off the recorded T/C for `O=C(Nc1ccc(Cl)cc1)OCCN1CCOCC1`
94 % of control

Read off the recorded T/C for COc1ccc2c(c1)CCN1C2CCN2CCCC21 (stereo not drawn)
90 % of control

Read off the recorded T/C for Cc1ccc(C(O)(c2ccccc2)c2ccccc2C(=O)Nc2ccccc2)cc1 (stereo not drawn)
90 % of control

Read off the recorded T/C for `CC(=O)CC(=O)c1cccnc1`
97 % of control

Read off the recorded T/C for CCOC(=O)C(C)OC(=O)c1ccccc1 (stereo not drawn)
105 % of control

Read off the recorded T/C for `Cc1c[n+]([O-])cc(=O)[nH]1`
100 % of control

Read off the recorded T/C for `CC1(C(Cl)(Cl)Cl)C=CC(=O)C=C1`
97 % of control

Read off the recorded T/C for `Cc1cccc(C)c1NC(=O)c1ccccc1C(=O)O`
98 % of control

Read off the recorded T/C for `c1ccc(-c2nnc(-c3ccccc3)nn2)cc1`
101 % of control

Read off the recorded T/C for `COc1ccc(C(CO)=C(c2ccc(OC)cc2)c2ccc(OC)cc2)cc1`
94 % of control

Read off the recorded T/C for `O=c1[nH]c(C(Cl)(Cl)Cl)nc2ccc(Cl)cc12`
96 % of control

Read off the recorded T/C for `CCc1cc(C)cc(OC(=O)Nc2cccc(Cl)c2)c1`
92 % of control

Read off the recorded T/C for `O=C(c1ccccc1)N(CCCCl)C(=O)N(CCCCl)C(=O)c1ccccc1`
100 % of control
